Target: EGFR wildtype (WT) (Homo sapiens)
Experiment: Biochemical EGFR kinase assay (Lance Ultra TR-FRET), wildtype
Conditions: IC50 WT (nM) 100 μM ATP, 100 μM ATP
# IC50 annotations

| molecule | unitText | IC50 |
| --- | --- | --- |
| Cn1ccc(-c2cnc(Nc3ccnc(-c4cnn(S(=O)(=O)C5CC5)c4)n3)cc2N[C@H]2CC[C@@H](NCC(F)F)CC2)n1 | nM | 918 |
| C[C@]1(O)CC[C@@H](Nc2cc(Nc3ccnc(-c4cnn(S(=O)(=O)C5CC5)c4)n3)ncc2-c2ccn(C(F)F)n2)CC1 | nM | 1060 |
| C[C@]1(O)CC[C@@H](Nc2cc(Nc3ccnc(-c4cnn(S(=O)(=O)C5CC5)c4)n3)ncc2-c2ccn(C3CC3)n2)CC1 | nM | 2500 |
| CN(C)CC1(C)CCC(Nc2cc(Nc3ccnc(-c4cnn(S(=O)(=O)C5CC5)c4)n3)ncc2-c2ccn(CC(F)F)n2)CC1 (stereo not shown) | nM | 4510 |

###

Molecular target: EGFR L858R/T790M/C797S (Homo sapiens, UniProt P00533, C797S/L858R/T790M)
Sequence (P00533 25-1210 T790M/C797S/L858R): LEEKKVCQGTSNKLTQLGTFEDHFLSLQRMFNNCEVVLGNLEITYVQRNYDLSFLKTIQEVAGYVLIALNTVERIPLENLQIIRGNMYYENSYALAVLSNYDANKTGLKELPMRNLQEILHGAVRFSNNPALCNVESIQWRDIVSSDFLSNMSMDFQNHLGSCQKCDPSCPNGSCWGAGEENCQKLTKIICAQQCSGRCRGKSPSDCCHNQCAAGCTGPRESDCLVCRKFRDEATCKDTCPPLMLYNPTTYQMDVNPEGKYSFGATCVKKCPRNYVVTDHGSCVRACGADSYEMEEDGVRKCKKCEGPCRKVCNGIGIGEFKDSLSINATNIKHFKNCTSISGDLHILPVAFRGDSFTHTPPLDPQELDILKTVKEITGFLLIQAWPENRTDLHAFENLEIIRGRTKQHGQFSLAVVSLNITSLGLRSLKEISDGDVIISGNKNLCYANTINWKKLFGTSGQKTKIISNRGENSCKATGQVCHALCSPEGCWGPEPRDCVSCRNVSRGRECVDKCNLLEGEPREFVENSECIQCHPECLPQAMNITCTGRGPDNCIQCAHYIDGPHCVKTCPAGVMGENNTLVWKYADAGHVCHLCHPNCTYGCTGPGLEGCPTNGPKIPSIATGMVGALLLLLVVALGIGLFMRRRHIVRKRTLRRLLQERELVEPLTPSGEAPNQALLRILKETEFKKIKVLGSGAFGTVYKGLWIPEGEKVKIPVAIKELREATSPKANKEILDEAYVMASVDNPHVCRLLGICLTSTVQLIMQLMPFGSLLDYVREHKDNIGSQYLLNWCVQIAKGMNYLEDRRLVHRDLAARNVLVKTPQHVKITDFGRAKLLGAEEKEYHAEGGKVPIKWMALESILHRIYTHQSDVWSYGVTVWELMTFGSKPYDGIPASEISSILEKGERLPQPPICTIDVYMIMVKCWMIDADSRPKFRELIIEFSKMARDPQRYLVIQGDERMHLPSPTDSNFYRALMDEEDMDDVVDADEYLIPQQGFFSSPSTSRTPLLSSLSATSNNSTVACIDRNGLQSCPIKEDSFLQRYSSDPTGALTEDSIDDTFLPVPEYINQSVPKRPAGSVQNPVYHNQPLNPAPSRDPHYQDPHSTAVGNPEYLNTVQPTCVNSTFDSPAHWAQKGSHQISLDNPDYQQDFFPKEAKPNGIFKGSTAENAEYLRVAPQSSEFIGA
Assay: Biochemical EGFR kinase assay (Lance Ultra TR-FRET), triple mutant L858R/T790M/C797S
Conditions: IC50 L858R/T790M/C797S (nM) 100 μM ATP, 100 μM ATP
Label key: class 1 means IC50 under 3 nM; class 0 means IC50 of 3 nM or more.

| cpdSmiles | labelClass |
| --- | --- |
| CN(CC(F)F)C(=O)[C@H]1CC[C@@H](Nc2cc(Nc3ccnc(-c4cnn(S(=O)(=O)C5CC5)c4)n3)ncc2-c2ccn(C(F)F)n2)CC1 | class 1 |
| Cn1nc(-c2cnc(Nc3ccnc(-c4cnn(S(=O)(=O)C5CC5)c4)n3)cc2N[C@H]2CC[C@@H](NCCF)CC2)cc1C(F)(F)F | class 1 |
| CC(C)(O)[C@H]1CC[C@@H](Nc2cc(Nc3ccnc(-c4cnn(S(=O)(=O)C5CC5)c4)n3)ncc2-c2ccn(C3COC3)n2)CC1 | class 1 |
| C[C@]1(O)CC[C@@H](Nc2cc(Nc3ccnc(-c4cnn(CC5CC5)c4)n3)ncc2-c2ccn(C(F)F)n2)CC1 | class 0 |
| O=S(=O)(C1CC1)n1cc(-c2nccc(Nc3cc(N[C@H]4CC[C@H](CO)OC4)c(-c4ccn(C(F)F)n4)cn3)n2)cn1 | class 0 |

###

Molecular target: EGFR wildtype (WT) (Homo sapiens, UniProt P00533)
Sequence (P00533 25-1210): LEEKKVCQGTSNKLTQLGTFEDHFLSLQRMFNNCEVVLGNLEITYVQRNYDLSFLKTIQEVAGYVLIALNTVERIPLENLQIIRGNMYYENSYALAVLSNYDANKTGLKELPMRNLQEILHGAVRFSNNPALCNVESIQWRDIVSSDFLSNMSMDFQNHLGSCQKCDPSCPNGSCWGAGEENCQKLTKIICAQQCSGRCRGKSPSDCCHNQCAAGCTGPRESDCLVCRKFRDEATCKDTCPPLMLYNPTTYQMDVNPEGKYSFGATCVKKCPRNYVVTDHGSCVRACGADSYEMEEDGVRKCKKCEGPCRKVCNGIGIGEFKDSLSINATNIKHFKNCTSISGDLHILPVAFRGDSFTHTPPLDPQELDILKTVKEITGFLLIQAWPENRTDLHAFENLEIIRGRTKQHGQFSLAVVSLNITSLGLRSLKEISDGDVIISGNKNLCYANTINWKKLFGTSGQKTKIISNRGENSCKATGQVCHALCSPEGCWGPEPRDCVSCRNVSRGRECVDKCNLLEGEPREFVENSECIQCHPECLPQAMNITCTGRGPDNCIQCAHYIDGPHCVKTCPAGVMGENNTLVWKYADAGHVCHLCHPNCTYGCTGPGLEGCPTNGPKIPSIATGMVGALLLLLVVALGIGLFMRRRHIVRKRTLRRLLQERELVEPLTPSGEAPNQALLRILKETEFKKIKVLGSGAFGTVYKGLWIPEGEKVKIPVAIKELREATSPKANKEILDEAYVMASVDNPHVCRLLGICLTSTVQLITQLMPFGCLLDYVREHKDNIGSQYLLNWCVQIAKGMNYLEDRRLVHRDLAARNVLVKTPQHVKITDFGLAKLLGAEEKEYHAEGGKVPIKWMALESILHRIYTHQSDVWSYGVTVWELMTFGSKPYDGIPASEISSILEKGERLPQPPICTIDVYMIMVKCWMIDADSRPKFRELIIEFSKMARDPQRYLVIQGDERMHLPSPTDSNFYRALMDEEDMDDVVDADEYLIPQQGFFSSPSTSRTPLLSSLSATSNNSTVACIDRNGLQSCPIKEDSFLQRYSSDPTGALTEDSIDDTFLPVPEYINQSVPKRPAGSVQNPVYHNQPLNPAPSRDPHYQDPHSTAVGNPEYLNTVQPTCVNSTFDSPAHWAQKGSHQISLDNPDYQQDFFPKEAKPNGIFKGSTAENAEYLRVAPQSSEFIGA
Assay: Biochemical EGFR kinase assay (Lance Ultra TR-FRET), wildtype
Conditions: IC50 WT (nM) 100 μM ATP, 100 μM ATP
# IC50 annotations
parameter: IC50

| compound | result |
| --- | --- |
| CN(C)S(=O)(=O)n1cc(-c2nccc(Nc3cc(N[C@H]4CC[C@@](C)(O)CC4)c(-c4ccn(C(F)F)n4)cn3)n2)cn1 | > 10000 nM |
| O=S(=O)(C1CC1)n1cc(-c2nccc(Nc3cc(NC4CCC(O)C4)c(-c4ccn(C(F)F)n4)cn3)n2)cn1 (centres unmarked) | > 10000 nM |
| CN(C)CC1(C)CCC(Nc2cc(Nc3ccnc(-c4cnn(S(=O)(=O)C5CC5)c4)n3)ncc2-c2ccn(CC(F)(F)F)n2)CC1 (centres unmarked) | 8270 nM |
| O=C1NCCCC1Nc1cc(Nc2ccnc(-c3cnn(S(=O)(=O)C4CC4)c3)n2)ncc1-c1ccn(C(F)F)n1 (centres unmarked) | > 10000 nM |
| CC1(O)CCC(Nc2cc(Nc3ccnc(-c4cnn(C5CCCO5)c4)n3)ncc2-c2ccn(C(F)F)n2)CC1 (centres unmarked) | > 10000 nM |
| Cn1ccc(-c2cnc(Nc3ccnc(-c4cnn(S(=O)(=O)C5CC5)c4)n3)cc2N[C@H]2CC[C@H](CO)CC2)n1 | > 10000 nM |
| O=S(=O)(C1CC1)n1cc(-c2nccc(Nc3cc(N[C@H]4CC[C@@H](NCCF)CC4)c(-c4ccn(C(F)F)n4)cn3)n2)cn1 | 7100 nM |
| O=S(=O)(C1CC1)n1cc(-c2nccc(Nc3cc(N[C@H]4CC[C@@H](O)CC4)c(-c4cnn(C(F)F)c4)cn3)n2)cn1 | > 10000 nM |

###

Target: EGFR del19/C797S (Homo sapiens, UniProt P00533, C797S/DEL746-750)
Sequence (P00533 with tags, fused parts or gaps DEL746-750/C797S): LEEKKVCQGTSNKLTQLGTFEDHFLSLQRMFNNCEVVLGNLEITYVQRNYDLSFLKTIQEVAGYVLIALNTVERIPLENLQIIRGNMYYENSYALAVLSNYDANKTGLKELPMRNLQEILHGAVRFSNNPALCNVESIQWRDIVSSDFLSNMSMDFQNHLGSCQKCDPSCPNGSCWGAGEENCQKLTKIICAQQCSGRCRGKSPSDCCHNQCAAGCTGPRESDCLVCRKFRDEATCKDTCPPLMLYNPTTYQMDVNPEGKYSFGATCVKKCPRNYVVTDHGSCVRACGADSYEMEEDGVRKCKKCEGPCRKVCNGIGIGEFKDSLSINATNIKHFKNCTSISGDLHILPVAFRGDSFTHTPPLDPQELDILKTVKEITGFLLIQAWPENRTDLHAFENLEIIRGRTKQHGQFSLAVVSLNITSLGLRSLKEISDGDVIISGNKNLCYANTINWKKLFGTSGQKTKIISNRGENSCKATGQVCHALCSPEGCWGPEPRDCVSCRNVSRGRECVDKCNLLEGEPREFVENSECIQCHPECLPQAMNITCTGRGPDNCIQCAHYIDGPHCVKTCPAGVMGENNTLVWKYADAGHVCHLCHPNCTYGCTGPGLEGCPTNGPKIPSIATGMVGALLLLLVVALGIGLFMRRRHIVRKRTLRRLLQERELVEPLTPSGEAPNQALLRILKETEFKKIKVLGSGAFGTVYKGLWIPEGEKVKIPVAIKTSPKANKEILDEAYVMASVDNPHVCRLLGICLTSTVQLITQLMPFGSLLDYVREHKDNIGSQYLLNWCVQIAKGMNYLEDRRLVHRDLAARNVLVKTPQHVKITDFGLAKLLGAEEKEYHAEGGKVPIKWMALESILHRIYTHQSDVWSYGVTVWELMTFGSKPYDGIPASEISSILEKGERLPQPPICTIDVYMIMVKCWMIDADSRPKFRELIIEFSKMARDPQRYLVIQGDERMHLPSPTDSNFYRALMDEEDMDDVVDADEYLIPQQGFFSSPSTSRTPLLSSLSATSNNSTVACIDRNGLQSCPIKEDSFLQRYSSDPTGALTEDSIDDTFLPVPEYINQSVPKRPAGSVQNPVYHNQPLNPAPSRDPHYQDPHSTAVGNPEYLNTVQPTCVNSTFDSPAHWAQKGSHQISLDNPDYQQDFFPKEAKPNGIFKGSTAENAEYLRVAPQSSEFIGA
Experiment: Biochemical EGFR kinase assay (Lance Ultra TR-FRET), double mutant del19/C797S
Details: IC50 del19/C797S (nM) 100 μM ATP, 100 μM ATP
parameter: IC50 (nM)

| molecule | parameter | unitText | measuredNumber |
| --- | --- | --- | --- |
| C[C@]1(O)CC[C@@H](Nc2cc(Nc3ccnc(-c4cnn(CC(F)(F)F)c4)n3)ncc2-c2ccn(C(F)F)n2)CC1 | IC50 | nM | 65.7 |
| CN(C)C[C@H]1CC[C@@H](Nc2cc(Nc3ccnc(-c4cnn(S(=O)(=O)C5CC5)c4)n3)ncc2-c2ccn(C(F)F)n2)CC1 | IC50 | nM | 0.3 |
| O=S(=O)(C1CC1)n1cc(-c2nccc(Nc3cc(N[C@H]4CC[C@@H](O)CC4)c(-c4cnn(C5CC5)c4)cn3)n2)cn1 | IC50 | nM | 38.5 |
| O=S(=O)(C1CC1)n1cc(-c2nccc(Nc3cc(N[C@H]4CC[C@](O)(CO)CC4)c(-c4csc(N5CCOCC5)n4)cn3)n2)cn1 | IC50 | nM | 18.5 |
| O=S(=O)(C1CC1)n1cc(-c2nccc(Nc3cc(N[C@H]4CC[C@@H](NCCF)CC4)c(-c4ccn(CC(F)F)n4)cn3)n2)cn1 | IC50 | nM | 0.8 |
| O=S(=O)(C1CC1)n1cc(-c2nccc(Nc3cc(NC[C@H]4CC[C@H](CO)CC4)c(-c4ccn(C(F)F)n4)cn3)n2)cn1 | IC50 | nM | 2.1 |
| CN(C)C(=O)C[C@H]1CC[C@@H](Nc2cc(Nc3ccnc(-c4cnn(S(=O)(=O)C5CC5)c4)n3)ncc2-c2ccn(C(F)F)n2)CC1 | IC50 | nM | 1 |
| CN(C)S(=O)(=O)n1cc(-c2nccc(Nc3cc(N[C@H]4CC[C@@](C)(O)CC4)c(-c4cc(C(F)(F)F)n(C)n4)cn3)n2)cn1 | IC50 | nM | 35.1 |
| C[C@]1(O)CCCN(c2cc(Nc3ccnc(-c4cnn(S(=O)(=O)C5CC5)c4)n3)ncc2-c2ccn(C(F)F)n2)C1 | IC50 | nM | 113 |
| O=S(=O)(C1CC1)n1cc(-c2nccc(Nc3cc(OC4CCC(OC(F)F)CC4)c(-c4cnn(C(F)F)c4)cn3)n2)cn1 (stereo not drawn) | IC50 | nM | 190 |
| O=S(=O)(C1CC1)n1cc(-c2nccc(Nc3cc(OC4CCC(O)C4)c(-c4cnn(C(F)F)c4)cn3)n2)cn1 (stereo not drawn) | IC50 | nM | 21.8 |
| Cn1ccc(-c2cnc(Nc3ccnc(-c4cnn(S(=O)(=O)C5CC5)c4)n3)cc2N[C@H]2CC[C@@H](NCC(F)F)CC2)n1 | IC50 | nM | 0.4 |

###

Molecular target: EGFR del19/T790M/C797S (Homo sapiens, UniProt P00533, C797S/DEL746-750/T790M)
Sequence (P00533 with tags, fused parts or gaps DEL746-750/T790M/C797S): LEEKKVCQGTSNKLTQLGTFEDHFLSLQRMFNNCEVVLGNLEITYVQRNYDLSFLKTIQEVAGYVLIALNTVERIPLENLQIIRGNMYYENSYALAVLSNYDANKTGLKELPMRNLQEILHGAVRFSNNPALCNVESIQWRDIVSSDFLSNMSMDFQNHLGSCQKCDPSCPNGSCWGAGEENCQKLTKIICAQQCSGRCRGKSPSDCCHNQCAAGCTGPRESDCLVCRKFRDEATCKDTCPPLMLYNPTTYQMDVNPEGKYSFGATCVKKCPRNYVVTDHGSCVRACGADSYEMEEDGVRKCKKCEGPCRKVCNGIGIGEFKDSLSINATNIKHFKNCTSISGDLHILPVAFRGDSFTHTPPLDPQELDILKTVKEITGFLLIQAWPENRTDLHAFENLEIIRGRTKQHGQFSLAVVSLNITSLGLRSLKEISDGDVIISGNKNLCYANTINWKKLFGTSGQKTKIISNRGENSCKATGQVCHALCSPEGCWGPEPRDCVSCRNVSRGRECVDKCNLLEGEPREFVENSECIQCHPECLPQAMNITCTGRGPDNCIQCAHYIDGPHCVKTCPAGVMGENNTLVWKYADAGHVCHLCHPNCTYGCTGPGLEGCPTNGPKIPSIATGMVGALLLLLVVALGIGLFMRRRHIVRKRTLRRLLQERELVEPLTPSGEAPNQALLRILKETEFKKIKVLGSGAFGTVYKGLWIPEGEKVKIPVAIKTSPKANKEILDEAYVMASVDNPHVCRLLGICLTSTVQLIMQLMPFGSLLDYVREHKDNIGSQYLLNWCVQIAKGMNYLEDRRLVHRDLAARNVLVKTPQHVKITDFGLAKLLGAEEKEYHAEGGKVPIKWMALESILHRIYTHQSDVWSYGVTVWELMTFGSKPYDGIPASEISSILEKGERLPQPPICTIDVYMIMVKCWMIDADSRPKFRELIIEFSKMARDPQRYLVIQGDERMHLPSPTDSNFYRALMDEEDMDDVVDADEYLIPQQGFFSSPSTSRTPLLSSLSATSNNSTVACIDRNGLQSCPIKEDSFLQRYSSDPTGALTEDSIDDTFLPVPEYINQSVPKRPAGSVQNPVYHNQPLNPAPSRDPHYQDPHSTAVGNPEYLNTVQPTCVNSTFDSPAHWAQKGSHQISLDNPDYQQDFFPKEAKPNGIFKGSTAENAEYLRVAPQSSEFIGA
Experiment: Biochemical EGFR kinase assay (Lance Ultra TR-FRET), triple mutant del19/T790M/C797S
Conditions: Km ATP; read-out: IC50 del19/T790M/C797S (nM) Km ATP
parameter: log10 IC50 (log10 of the value in nM)

| compound | measuredOn | log10 IC50 |
| --- | --- | --- |
| Cn1ccc(-c2cnc(Nc3ccnc(-c4cnn(S(=O)(=O)C5CC5)c4)n3)cc2NC[C@H]2CC[C@@H](O)C2)n1 [Example 118] | EGFR del19/T790M/C797S (Homo sapiens, UniProt P00533, C797S/DEL746-750/T790M) | -0.70 |
| CS(=O)(=O)n1ccc(-c2nccc(Nc3cc(N[C@H]4CC[C@@](C)(O)CC4)c(-c4ccn(C(F)F)n4)cn3)n2)c1 [Example 108] | EGFR del19/T790M/C797S (Homo sapiens, UniProt P00533, C797S/DEL746-750/T790M) | 0.08 |
| CN(C)CC[C@H]1CC[C@@H](Nc2cc(Nc3ccnc(-c4cnn(S(=O)(=O)C5CC5)c4)n3)ncc2-c2ccn(CC(F)F)n2)CC1 [Example 251] | EGFR del19/T790M/C797S (Homo sapiens, UniProt P00533, C797S/DEL746-750/T790M) | -0.15 |
| Cc1nn(CC(F)F)c(C)c1-c1nccc(Nc2cc(N[C@H]3CC[C@@](C)(O)CC3)c(-c3ccn(C(F)F)n3)cn2)n1 [Example 321] | EGFR del19/T790M/C797S (Homo sapiens, UniProt P00533, C797S/DEL746-750/T790M) | 0.45 |
| CN(CC(F)F)C(=O)[C@H]1CC[C@@H](Nc2cc(Nc3ccnc(-c4cnn(S(=O)(=O)C5CC5)c4)n3)ncc2-c2ccn(C)n2)CC1 [Example 235] | EGFR del19/T790M/C797S (Homo sapiens, UniProt P00533, C797S/DEL746-750/T790M) | -0.70 |
| C[C@]1(O)CC[C@@H](Nc2cc(Nc3ccnc(-c4cnn(C(F)F)c4)n3)ncc2-c2ccn(C(F)F)n2)CC1 [Example 149] | EGFR del19/T790M/C797S (Homo sapiens, UniProt P00533, C797S/DEL746-750/T790M) | 0.43 |
| O=S(=O)(C1CC1)n1cc(-c2nccc(Nc3cc(NC4CCC(CCF)CC4)c(-c4ccn(C(F)F)n4)cn3)n2)cn1 (stereo not shown) [Example 216] | EGFR del19/T790M/C797S (Homo sapiens, UniProt P00533, C797S/DEL746-750/T790M) | 1.41 |
| Cn1nc(-c2cnc(Nc3ccnc(-c4cnn(S(=O)(=O)C5CC5)c4)n3)cc2N[C@H]2CC[C@@H](C(C)(C)O)CC2)cc1C(F)(F)F [Example 254] | EGFR del19/T790M/C797S (Homo sapiens, UniProt P00533, C797S/DEL746-750/T790M) | 0.57 |
| C[C@]1(O)CC[C@@H](Nc2cc(Nc3ccnc(-c4cnn(S(=O)(=O)C5CC5)c4)n3)ncc2-c2cn(C(F)F)cn2)CC1 [Example 273] | EGFR del19/T790M/C797S (Homo sapiens, UniProt P00533, C797S/DEL746-750/T790M) | 0.49 |
| CC1(O)CCC(Nc2cc(Nc3ccnc(-c4cnn(S(=O)(=O)C5CCOC5)c4)n3)ncc2-c2ccn(C(F)F)n2)CC1 (stereo not shown) [Example 114] | EGFR del19/T790M/C797S (Homo sapiens, UniProt P00533, C797S/DEL746-750/T790M) | -0.22 |
| O=S(=O)(C1CC1)n1cc(-c2nccc(Nc3cc(N[C@H]4CC[C@](O)(CO)CC4)c(-c4csc(N5CCOCC5)n4)cn3)n2)cn1 [Example 125] | EGFR del19/T790M/C797S (Homo sapiens, UniProt P00533, C797S/DEL746-750/T790M) | -0.15 |
| O=S(=O)(C1CC1)n1cc(-c2nccc(Nc3cc(OC4CCC(O)C4)c(-c4cnn(C(F)F)c4)cn3)n2)cn1 (stereo not shown) [Example 72] | EGFR del19/T790M/C797S (Homo sapiens, UniProt P00533, C797S/DEL746-750/T790M) | -0.05 |
| O=S(=O)(C1CC1)n1cc(-c2nccc(Nc3cc(NCC4CC5(CNC5)C4)c(-c4ccn(C(F)F)n4)cn3)n2)cn1 [Example 26] | EGFR del19/T790M/C797S (Homo sapiens, UniProt P00533, C797S/DEL746-750/T790M) | -1.00 |
| FC(F)Cn1cc(-c2nccc(Nc3cc(N[C@H]4CC[C@@H](F)CC4)c(-c4ccn(C(F)F)n4)cn3)n2)cn1 [Example 161] | EGFR del19/T790M/C797S (Homo sapiens, UniProt P00533, C797S/DEL746-750/T790M) | 0.51 |
| FC(F)Cn1cc(-c2nccc(Nc3cc(NC4CCCC(F)C4)c(-c4ccn(C(F)F)n4)cn3)n2)cn1 (stereo not shown) [Example 180] | EGFR del19/T790M/C797S (Homo sapiens, UniProt P00533, C797S/DEL746-750/T790M) | 0.11 |
| Cn1ccc(-c2cnc(Nc3ccnc(-c4cnn(S(=O)(=O)C5CC5)c4)n3)cc2N[C@H]2CC[C@H](CCO)CC2)n1 [Example 134] | EGFR del19/T790M/C797S (Homo sapiens, UniProt P00533, C797S/DEL746-750/T790M) | -0.70 |
| Cn1cc(C#Cc2cc(Nc3ccnc(-c4cnn(S(=O)(=O)C5CC5)c4)n3)ncc2-c2cnn(C3CC3)c2)cn1 [Example 1] | EGFR del19/T790M/C797S (Homo sapiens, UniProt P00533, C797S/DEL746-750/T790M) | 2.00 |
| CN(C)S(=O)(=O)n1cc(-c2nccc(Nc3cc(N[C@H]4CC[C@@](C)(O)CC4)c(-c4ccn(C(F)F)n4)cn3)n2)cn1 [Example 317] | EGFR del19/T790M/C797S (Homo sapiens, UniProt P00533, C797S/DEL746-750/T790M) | -0.30 |
| CN(C)CCCn1ccc(-c2cnc(Nc3ccnc(-c4cnn(S(=O)(=O)C5CC5)c4)n3)cc2NCC2(CO)COC2)n1 [Example 279] | EGFR del19/T790M/C797S (Homo sapiens, UniProt P00533, C797S/DEL746-750/T790M) | -0.30 |
| O=S(=O)(C1CC1)n1cc(-c2nccc(Nc3cc(N[C@H]4CC[C@@H](O)CC4)c(-c4ccco4)cn3)n2)cn1 [Example 83] | EGFR del19/T790M/C797S (Homo sapiens, UniProt P00533, C797S/DEL746-750/T790M) | -0.52 |
| Cn1ccc(-c2cnc(Nc3ccnc(-c4cnn(S(=O)(=O)C5CC5)c4)n3)cc2NC[C@H]2CC[C@H](O)CC2)n1 [Example 47] | EGFR del19/T790M/C797S (Homo sapiens, UniProt P00533, C797S/DEL746-750/T790M) | -0.22 |
| Cc1cn(-c2cnc(Nc3ccnc(-c4cnn(S(=O)(=O)C5CC5)c4)n3)cc2N[C@H]2CC[C@@](C)(O)CC2)nc1C(F)(F)F [Example 186] | EGFR del19/T790M/C797S (Homo sapiens, UniProt P00533, C797S/DEL746-750/T790M) | 0.11 |
